# systemUnderTest: biotinylated recombinant SARS-CoV-2 wild type spike RBD (SARS-CoV-2, wild type, UniProt P0DTC2, biotin (biotinylated; detected with streptavidin-FITC))
# assayOverview: flow cytometry on cells
# condition: one partner purified

>  <binder>
REGN10987 scFv combinatorial variant d6 displayed on HEK 293T cells (scFv, V domains shown) VH: QVQLVESGGGVVQPGRSLRLSCAASGFTFSNYAMYWVRQAPGKGLEWVAVISYIGSNKYYADSVKGRFTISRDNSKNTLYLQMNSLRTEDTAVYYCASGSDYGDYLLVYWGQGTLVTVSS VL: QSALTQPASVSGSPGQSITISCTGTSSDVGGYNYVSWYQQHPGKAPKLMIYDVSKRPSGVSNRFSGSKSGNTASLTISGLQSEDEADYYCNSLTSIYTWVFGGGTKLTVL

>  <binding result>
binds

$$$$
